- Tested on: U2OS
- METHOD: Multiplex assay against U2OS
- Type: toxicity, cell-based
- EXPERIMENTAL PARAMETERS: human, 48 h, 10 µM, compound concentration 10 uM, replicate 2
We use 3% as the dividing line for Population Mitochondria Different-Phenotype (%): on or above the line is TRUE, below is FALSE.

// known answers, use as guide
Quick check: does O=C1[C@H](Cc2ccc(O)cc2)N2C(=O)CCN(C(=O)NCc3ccccc3)[C@H]2CN1Cc1cccc2ccccc12 have Population Mitochondria Different-Phenotype (%) greater than or equal to 3%?
TRUE

Exam item: decide whether the reported Population Mitochondria Different-Phenotype (%) for Cc1c(CC(=O)O)c2cccnc2n1Cc1ccc(S(C)(=O)=O)cc1C(F)(F)F [FEVIPIPRANT] is at least 3%.
FALSE

Test whether the compound Cl.NCCc1ccc(O)c(O)c1 [DOPAMINE HYDROCHLORIDE] records Population Mitochondria Different-Phenotype (%) of 3% or higher.
FALSE

Decide: is the reported value of Population Mitochondria Different-Phenotype (%) for CC(C)COc1ccc(CNC(=O)N(Cc2ccc(F)cc2)C2CCN(C)CC2)cc1 [PIMAVANSERIN] equal to or greater than 3%?
TRUE

Form field: Population Mitochondria Different-Phenotype (%) at least 3%? Entry: N#Cc1c(Oc2cccc(OS(=O)(=O)CCCC(F)(F)F)c2)cccc1C(F)(F)F
TRUE

***
Please indicate if the recorded Population Mitochondria Different-Phenotype (%) for Br.CS(=O)(=O)Nc1c(O)ccc2c1CCCC2C1=NCCN1 (centres undefined) meets or exceeds 3%.
TRUE

Quick check, Population Mitochondria Different-Phenotype (%) >= 3%? Cc1noc(-c2ccc(-c3ccc(CC(=O)O)cc3)cc2)c1NC(=O)O[C@H](C)c1ccccc1Cl
FALSE

###

- Test system: Fibroblast
- METHOD: Multiplex assay against human fibroblast
- Assay type: toxicity, cell-based
- EXPERIMENTAL PARAMETERS: 12 h, 1 µM, compound concentration 1 uM, replicate 1
REPORTED METRIC: Population Membrane Permeable-Phenotype (%)
Express the reported value numerically, then name its unit.

For this compound ( Cc1sc2c(c1C)C(c1ccc(Cl)cc1)=N[C@@H](CC(=O)NCCCCCCCCNC(=O)COc1cccc3c1C(=O)N(C1CCC(=O)NC1=O)C3=O)c1nnc(C)n1-2 (some centres undefined) ), measured Population Membrane Permeable-Phenotype (%) is 1%

Noted for Cc1onc(-c2ccccc2Cl)c1C(=O)N(C)c1ccc(Cl)cc1 : its Population Membrane Permeable-Phenotype (%) reads 0%

Per the records, this compound ( CCCCCC(O)/C=C/[C@H]1C(=O)CC(O)C1C/C=C\CCCC(=O)O (some centres undefined) ) has Population Membrane Permeable-Phenotype (%) equal to 0%

# compound Cl.N=C(N)NC(=O)Cc1c(Cl)cccc1Cl [GUANFACINE HYDROCHLORIDE] ; its Population Membrane Permeable-Phenotype (%) = 0%

For record NCCc1cn(S(=O)(=O)c2c(Cl)nc3sccn23)c2ccccc12.O=C(O)C(=O)O the listed Population Membrane Permeable-Phenotype (%) is 0%

Next:
get_value(item= CCc1cc2cc(NS(=O)(=O)c3ccc(C#N)cc3)ccc2n(CC)c1=O , readout=Population Membrane Permeable-Phenotype (%)) returns 1%

According to the records, this compound COc1ccccc1N1CCN(C[C@@H](C(=O)NC(C)(C)C)c2ccccc2)CC1.Cl.Cl displays Population Membrane Permeable-Phenotype (%) of 0%

The value of Population Membrane Permeable-Phenotype (%) measured for the compound CC(C)(C)c1cc(NC(=O)Nc2ccc(-c3cn4c(n3)sc3cc(OCCN5CCOCC5)ccc34)cc2)no1 [QUIZARTINIB] turned out to be 0%

The compound identified as Cc1noc(-c2ccc(-c3ccc(CC(=O)O)cc3)cc2)c1NC(=O)O[C@H](C)c1ccccc1Cl registered its Population Membrane Permeable-Phenotype (%) at 0%
